Source: patent US10336702B2

Each entry below carries its recorded IC50.
# TARGET ENTITY: Akt3 (Homo sapiens, UniProt Q9Y243)
# Construct: unspecified tag, removed (detagged) (cleaved yes); purchased SignalChem and Proteros (Akt3); Merck Millipore (PDK1) 14-452 (PDK1); none given for Akt3
# Sequence (Q9Y243 whole entry): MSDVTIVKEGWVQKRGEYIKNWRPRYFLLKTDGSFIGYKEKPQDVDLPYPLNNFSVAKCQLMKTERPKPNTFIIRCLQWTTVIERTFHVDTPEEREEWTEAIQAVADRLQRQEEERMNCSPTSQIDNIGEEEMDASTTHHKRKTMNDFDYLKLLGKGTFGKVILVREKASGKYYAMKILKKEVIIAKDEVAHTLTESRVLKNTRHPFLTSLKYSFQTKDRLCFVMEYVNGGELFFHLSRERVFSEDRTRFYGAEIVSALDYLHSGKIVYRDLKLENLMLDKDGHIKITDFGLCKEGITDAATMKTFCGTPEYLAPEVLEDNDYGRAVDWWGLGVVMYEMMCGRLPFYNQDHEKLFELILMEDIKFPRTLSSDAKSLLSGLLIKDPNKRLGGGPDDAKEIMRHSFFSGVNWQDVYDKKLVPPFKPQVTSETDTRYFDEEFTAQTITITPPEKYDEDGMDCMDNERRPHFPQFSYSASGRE
# EXPERIMENT SUMMARY: Akt activation assay (PDK1-mediated activation, LANCE Ultra crosstide TR-FRET), Akt3
# Format: biochemical
# STATED CONDITIONS: read-out: Biological Assay 1 IC50 (nM) Akt3
Kindly answer with a numeric value in nM, unit omitted.

As a guide, the following entries are already answered.
- COMPOUND: "CC(C)(C)C(=O)N[C@H]1CC[C@H](CC(=O)Nc2cnc(-c3ccc(C4(N)CCC4)cc3)c(-c3ccsc3)c2)CC1"
  MEASURED QUANTITY: "IC50"
  RESULT UNITS: "nM"
  ENDPOINT VALUE: 25
- COMPOUND: "CCC(=O)N(C(C)C)[C@H]1CC[C@H](CC(=O)Nc2cc(-c3ccccc3)c(-c3ccc([C@]4(N)C[C@](C)(O)C4)cc3)cn2)CC1"
  MEASURED QUANTITY: "IC50"
  RESULT UNITS: "nM"
  ENDPOINT VALUE: 23
- COMPOUND: "NC1(c2ccc(-c3ncc(NC(=O)C(F)C4CCN(S(=O)(=O)C5CC5)CC4)cc3-c3ccccc3)cc2)CCC1 (stereo not shown)"
  MEASURED QUANTITY: "IC50"
  RESULT UNITS: "nM"
  ENDPOINT VALUE: 360
- COMPOUND: "CC(=O)N(C)[C@H]1CC[C@H](CC(=O)Nc2cc(-c3ccsc3)c(-c3ccc(C(C)(C)N)cc3)nn2)CC1"
  MEASURED QUANTITY: "IC50"
  RESULT UNITS: "nM"
  ENDPOINT VALUE: 92
- COMPOUND: "CC(=O)N[C@H]1CC[C@H](C(C)C(=O)Nc2cnc(-c3ccc(C4(N)CCC4)cc3)c(-c3ccccc3)c2)CC1 (relative stereo)"
  MEASURED QUANTITY: "IC50"
  RESULT UNITS: "nM"
  ENDPOINT VALUE: 170

Okay, now this compound:
[Q] Given the compound CC(=O)N[C@H]1CC[C@H](CC(=O)Nc2cnc(-c3ccc(C4(N)CCC4)cc3)c(-c3ccccc3)c2)CC1 , what is its reported IC50?
[A] 18

* * *

# TARGET ENTITY: p-Akt3 in WM115 cells (Homo sapiens)
# Construct: SureFire assays to detect cellular p-Akt1, p-Akt2 and p-Akt3 levels in WM115 cells (Akt2/3) and LNCaP cells (Akt1); endogenous in cells; host or cells: WM115 (ECACC 91061232), insulin-stimulated
# Sequence (Q9Y243 whole entry): as above
# EXPERIMENT SUMMARY: Phospho-Akt cellular SureFire assay, p-Akt3 in WM115 cells
# Type: cell-based
# STATED CONDITIONS: insulin stimulated, read-out: Biological Assay 2 IC50 (nM) Akt3 WM115
Lab note: cut-off is 30 nM. Strictly less in IC50 is label 1. Exactly 30 nM or more is label 0.

Take a look at these entries with their results.
- COMPOUND: "CN([C@H]1CC[C@H](CC(=O)Nc2cnc(-c3ccc(C(C)(C)N)cc3)c(-c3ccccc3F)c2)CC1)S(C)(=O)=O"
  TARGET ENTITY: "p-Akt3 in WM115 cells (Homo sapiens)"
  ASSIGNED CLASS: "label 0"
- COMPOUND: "CN(C1CCC(CC(=O)Nc2cnc(-c3ccc(C(C)(C)N)cc3)c(-c3ccccc3)c2)CC1)C1(C)COC1 (stereo not drawn)"
  TARGET ENTITY: "p-Akt3 in WM115 cells (Homo sapiens)"
  ASSIGNED CLASS: "label 0"

[Q] Is 30 nM strictly greater than the compound's reported IC50? compound: CCC(=O)N(C)[C@H]1CC[C@H](CC(=O)Nc2cc(-c3ccsc3)c(-c3ccc([C@]4(N)C[C@H](F)C4)cc3)nn2)CC1
[A] label 1

[Q] Is 30 nM strictly greater than the compound's reported IC50? compound: CCC(=O)N(C)[C@H]1CC[C@H](CC(=O)Nc2cc(-c3ccccc3)c(-c3ccc([C@]4(N)C[C@](C)(O)C4)c(F)c3)cn2)CC1
[A] label 0

[Q] Is 30 nM strictly greater than the compound's reported IC50? compound: COC(=O)N(C(C)C)[C@H]1CC[C@H](CC(=O)Nc2cnc(-c3ccc(C4(N)CCC4)cc3)c(-c3ccccc3)c2)CC1
[A] label 0

[Q] Is 30 nM strictly greater than the compound's reported IC50? compound: CCC(=O)N(C)[C@H]1CC[C@H](CC(=O)Nc2cc(-c3ccccc3)c(-c3ccc(C4(N)CC4)cc3)cn2)CC1
[A] label 0
